Hi there, I'd appreciate the recorded IC50 for every entry that follows.
tested on: PDC 899932-113-R3-J6 complex spheroid viability; assay: Anticancer human tumor 899932-113-R3-J6-PDC patient-derived melanoma cell line growth inhibition [RAS]; details: curve of first compound; second compound 0.0316 µM

Reported IC50 for CC1(O)CCCC1n1c(=O)c(C(F)F)cc2cnc(NC3CCN(S(C)(=O)=O)CC3)nc21 (stereo not given) + C#Cc1c(F)ccc2cc(O)cc(-c3ncc4c(N5CC6CCC(C5)N6)nc(OCC56CCCN5CC(F)C6)nc4c3F)c12 : what is it? 2470 nM

Now consider CCN1CCN(Cc2ccc(Nc3ncc(F)c(-c4cc(F)c5nc(C)n(C(C)C)c5c4)n3)nc2)CC1 + C#Cc1c(F)ccc2cc(O)cc(-c3ncc4c(N5CC6CCC(C5)N6)nc(OCC56CCCN5CC(F)C6)nc4c3F)c12 . 502 nM

Now consider Nc1ccn(C2OC(CO)C(O)C2(F)F)c(=O)n1 (stereo not given) + C#Cc1c(F)ccc2cc(O)cc(-c3ncc4c(N5CC6CCC(C5)N6)nc(OCC56CCCN5CC(F)C6)nc4c3F)c12 . 17.6 nM

Now consider O=C(c1ccc(F)c(F)c1Nc1ccc(I)cc1F)N1CC(O)([C@@H]2CCCCN2)C1 + C#Cc1c(F)ccc2cc(O)cc(-c3ncc4c(N5CC6CCC(C5)N6)nc(OCC56CCCN5CC(F)C6)nc4c3F)c12 . 8.97 nM

Now consider CC(Nc1ccc2c(c1)OCCn1cc(N3C(=O)OCC3C(F)F)nc1-2)C(N)=O (stereo not given) + C=CC(=O)N1CCN(c2nc(OCC3CCCN3C)nc3c(F)c(-c4nc(N)cc(C)c4C(F)(F)F)c(Cl)cc23)C(C)C1 . 2910 nM

Now consider C=CC(=O)Nc1cc(Nc2nccc(-c3cn(C)c4ccccc34)n2)c(OC)cc1N(C)CCN(C)C + C#Cc1c(F)ccc2cc(O)cc(-c3ncc4c(N5CC6CCC(C5)N6)nc(OCC56CCCN5CC(F)C6)nc4c3F)c12 . > 1000 nM

Now consider O=C(c1ccc(F)c(F)c1Nc1ccc(I)cc1F)N1CC(O)([C@@H]2CCCCN2)C1 + C=CC(=O)N1CCN(c2nc(OCC3CCCN3C)nc3c(F)c(-c4nc(N)cc(C)c4C(F)(F)F)c(Cl)cc23)C(C)C1 . 6.75 nM

Now consider CC1(C)CCC(Nc2ncc(C(F)(F)F)c(-c3c[nH]c4c(P(C)(C)=O)c(C#N)ccc34)n2)CN1 (stereo not given) + C=CC(=O)N1CCN(c2nc(OCC3CCCN3C)nc3c(F)c(-c4nc(N)cc(C)c4C(F)(F)F)c(Cl)cc23)C(C)C1 . 11 nM

Now consider Nc1ccn(C2OC(CO)C(O)C2(F)F)c(=O)n1 (stereo not given) + C=CC(=O)N1CCN(c2nc(OCC3CCCN3C)nc3c(F)c(-c4nc(N)cc(C)c4C(F)(F)F)c(Cl)cc23)C(C)C1 . 21.2 nM

Now consider CC(C)n1nc(-c2ccc3oc(N)nc3c2)c2c(N)ncnc21 + C=CC(=O)N1CCN(c2nc(OCC3CCCN3C)nc3c(F)c(-c4nc(N)cc(C)c4C(F)(F)F)c(Cl)cc23)C(C)C1 . > 100 nM

---

Tested on: PDC 899932-113-R3-J6 complex spheroid viability
Assay: Anticancer human tumor 899932-113-R3-J6-PDC cell line growth inhibition [RAS];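 as to viability, T/C: spheroids exposed to agents for seven days before readout; 100% = DMSO vehicle control wells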
Conditions: second compound 1 µM; first compound 0.0316 µM; stronger effect = lower value
Source text: RAS pathway inhibitors in Combinations in Complex Spheroids A high-throughput screen of multi-cell type tumor spheroids was designed to identify active combinations of RAS pathway inhibitors and targeted small molecules. Complex spheroids include a stromal component modeled by human endothelial cells (HUVEC) and fibroblasts modeled by human mesenchymal stem cells (MSCs). […] Compounds. […] If the clinical Cmax for an agent had not been determined, the highest concentration tested was 10 microM. […]
parameterMeasured: viability, T/C

Provide the documented viability, T/C with PDC 899932-113-R3-J6 complex spheroid viability as the system for C[C@@H](NC(=O)c1ncnc(N)c1Cl)c1ncc(C(=O)Nc2cc(C(F)(F)F)c(Cl)cn2)s1 + C#Cc1c(F)ccc2cc(O)cc(-c3ncc4c(N5CC6CCC(C5)N6)nc(OCC56CCCN5CC(F)C6)nc4c3F)c12 138%

Now consider CC(Nc1ccc2c(c1)OCCn1cc(N3C(=O)OCC3C(F)F)nc1-2)C(N)=O (stereo not given) + C#Cc1c(F)ccc2cc(O)cc(-c3ncc4c(N5CC6CCC(C5)N6)nc(OCC56CCCN5CC(F)C6)nc4c3F)c12 . 93%

Now consider Cc1nc(N2CCC3(CC2)COC(C)C3N)c(CO)nc1Sc1ccnc(N)c1Cl (stereo not given) + C=CC(=O)N1CCN(c2nc(OCC3CCCN3C)nc3c(F)c(-c4nc(N)cc(C)c4C(F)(F)F)c(Cl)cc23)C(C)C1 . 113%

Now consider CC1(O)CCCC1n1c(=O)c(C(F)F)cc2cnc(NC3CCN(S(C)(=O)=O)CC3)nc21 (stereo not given) + C=CC(=O)N1CCN(c2nc(OCC3CCCN3C)nc3c(F)c(-c4nc(N)cc(C)c4C(F)(F)F)c(Cl)cc23)C(C)C1 . 88.5%

Now consider C=CC(=O)N1CCN(c2nc(OCC3CCCN3C)nc3c(F)c(-c4nc(N)cc(C)c4C(F)(F)F)c(Cl)cc23)C(C)C1 (stereo not given) + C#Cc1c(F)ccc2cc(O)cc(-c3ncc4c(N5CC6CCC(C5)N6)nc(OCC56CCCN5CC(F)C6)nc4c3F)c12 . 115%

---

tested on: PDC 899932-113-R3-J6 complex spheroid viability; assay: Anticancer human tumor 899932-113-R3-J6-PDC cell line growth inhibition [RAS]; conditions: second compound 0.03 µM; first compound 1 µM; active = viability on the fitted dose curve at most 10% of control; inactive = the rest
Hello, when you answer, please use one of the following outcomes: active, inactive

# outcome recorded in this test, key = Cc1nc(N2CCC3(CC2)COC(C)C3N)c(CO)nc1Sc1ccnc(N)c1Cl (centres undefined) + CCn1c(-c2cccnc2C(C)OC)c2c3cc(ccc31)N1CCOC(CC(NC(=O)C(C(C)C)N(C)C(=O)C3(F)CCN(C(=O)C#CC(C)(C)N(C)C)CC3)C(=O)N3CCCC(N3)C(=O)OCC(C)(C)C2)C1 inactive

Now consider CC(Nc1ccc2c(c1)OCCn1cc(N3C(=O)OCC3C(F)F)nc1-2)C(N)=O (centres undefined) + CCn1c(-c2cc(N3CCN(C)CC3)cnc2C(C)OC)c2c3cc(ccc31)-c1csc(n1)CC(NC(=O)C1CC1C)C(=O)N1CCCC(N1)C(=O)OCC(C)(C)C2 . active

Now consider C=CC(=O)N1CCN(c2nc(OCC3CCCN3C)nc3c(F)c(-c4nc(N)cc(C)c4C(F)(F)F)c(Cl)cc23)C(C)C1 (centres undefined) + CCn1c(-c2cc(N3CCN(C)CC3)cnc2C(C)OC)c2c3cc(ccc31)-c1csc(n1)CC(NC(=O)C1CC1C)C(=O)N1CCCC(N1)C(=O)OCC(C)(C)C2 . active

Now consider CC(Nc1ccc2c(c1)OCCn1cc(N3C(=O)OCC3C(F)F)nc1-2)C(N)=O (centres undefined) + CCn1c(-c2cccnc2C(C)OC)c2c3cc(ccc31)N1CCOC(CC(NC(=O)C(C(C)C)N(C)C(=O)C3(F)CCN(C(=O)C#CC(C)(C)N(C)C)CC3)C(=O)N3CCCC(N3)C(=O)OCC(C)(C)C2)C1 . inactive

Now consider CC1(O)CCCC1n1c(=O)c(C(F)F)cc2cnc(NC3CCN(S(C)(=O)=O)CC3)nc21 (centres undefined) + CCn1c(-c2cc(N3CCN(C)CC3)cnc2C(C)OC)c2c3cc(ccc31)-c1csc(n1)CC(NC(=O)C1CC1C)C(=O)N1CCCC(N1)C(=O)OCC(C)(C)C2 . active

Now consider C[C@@H](NC(=O)c1ncnc(N)c1Cl)c1ncc(C(=O)Nc2cc(C(F)(F)F)c(Cl)cn2)s1 + CCn1c(-c2cccnc2C(C)OC)c2c3cc(ccc31)N1CCOC(CC(NC(=O)C(C(C)C)N(C)C(=O)C3(F)CCN(C(=O)C#CC(C)(C)N(C)C)CC3)C(=O)N3CCCC(N3)C(=O)OCC(C)(C)C2)C1 . inactive

Now consider O=C(c1ccc(F)c(F)c1Nc1ccc(I)cc1F)N1CC(O)([C@@H]2CCCCN2)C1 + CCn1c(-c2cccnc2C(C)OC)c2c3cc(ccc31)N1CCOC(CC(NC(=O)C(C(C)C)N(C)C(=O)C3(F)CCN(C(=O)C#CC(C)(C)N(C)C)CC3)C(=O)N3CCCC(N3)C(=O)OCC(C)(C)C2)C1 . active

Now consider CC(=O)OC12COC1CC(O)C1(C)C(=O)C(O)C3=C(C)C(OC(=O)C(O)C(NC(=O)OC(C)(C)C)c4ccccc4)CC(O)(C(OC(=O)c4ccccc4)C21)C3(C)C (centres undefined) + CCn1c(-c2cccnc2C(C)OC)c2c3cc(ccc31)N1CCOC(CC(NC(=O)C(C(C)C)N(C)C(=O)C3(F)CCN(C(=O)C#CC(C)(C)N(C)C)CC3)C(=O)N3CCCC(N3)C(=O)OCC(C)(C)C2)C1 . inactive

Now consider CCN1CCN(Cc2ccc(Nc3ncc(F)c(-c4cc(F)c5nc(C)n(C(C)C)c5c4)n3)nc2)CC1 + CCn1c(-c2cccnc2C(C)OC)c2c3cc(ccc31)N1CCOC(CC(NC(=O)C(C(C)C)N(C)C(=O)C3(F)CCN(C(=O)C#CC(C)(C)N(C)C)CC3)C(=O)N3CCCC(N3)C(=O)OCC(C)(C)C2)C1 . inactive

Now consider C=CC(=O)Nc1cc(Nc2nccc(-c3cn(C)c4ccccc34)n2)c(OC)cc1N(C)CCN(C)C + CCn1c(-c2cccnc2C(C)OC)c2c3cc(ccc31)N1CCOC(CC(NC(=O)C(C(C)C)N(C)C(=O)C3(F)CCN(C(=O)C#CC(C)(C)N(C)C)CC3)C(=O)N3CCCC(N3)C(=O)OCC(C)(C)C2)C1 . inactive

Now consider Cc1nc(N2CCC3(CC2)COC(C)C3N)c(CO)nc1Sc1ccnc(N)c1Cl (centres undefined) + CCn1c(-c2cc(N3CCN(C)CC3)cnc2C(C)OC)c2c3cc(ccc31)-c1csc(n1)CC(NC(=O)C1CC1C)C(=O)N1CCCC(N1)C(=O)OCC(C)(C)C2 . active

Now consider CC(=O)OC12COC1CC(O)C1(C)C(=O)C(O)C3=C(C)C(OC(=O)C(O)C(NC(=O)OC(C)(C)C)c4ccccc4)CC(O)(C(OC(=O)c4ccccc4)C21)C3(C)C (centres undefined) + CCn1c(-c2cc(N3CCN(C)CC3)cnc2C(C)OC)c2c3cc(ccc31)-c1csc(n1)CC(NC(=O)C1CC1C)C(=O)N1CCCC(N1)C(=O)OCC(C)(C)C2 . active

Now consider Nc1ccn(C2OC(CO)C(O)C2(F)F)c(=O)n1 (centres undefined) + CCn1c(-c2cc(N3CCN(C)CC3)cnc2C(C)OC)c2c3cc(ccc31)-c1csc(n1)CC(NC(=O)C1CC1C)C(=O)N1CCCC(N1)C(=O)OCC(C)(C)C2 . active

Now consider CC(C)NCC(C(=O)N1CCN(c2ncnc3c2C(C)CC3O)CC1)c1ccc(Cl)cc1 (centres undefined) + CCn1c(-c2cccnc2C(C)OC)c2c3cc(ccc31)N1CCOC(CC(NC(=O)C(C(C)C)N(C)C(=O)C3(F)CCN(C(=O)C#CC(C)(C)N(C)C)CC3)C(=O)N3CCCC(N3)C(=O)OCC(C)(C)C2)C1 . inactive
